Target: Carbonic anhydrase 9 (Homo sapiens, UniProt Q16790)
Assay: Inhibition of human recombinant carbonic anhydrase 9 assessed as CO2 hydration preincubated for 15 mins prior to testing measured for 10 to 100 secs by phenol red dye-based stopped-flow assay
attribute.measured: pKi
Convention used: pKi is expressed as -log10 of the molar concentration.

INSERT INTO results (smiles_input, target_or_system, quantitative_readout) VALUES
  ('NS(=O)(=O)c1ccc(N/N=C/c2ccc(N3CCN(c4ccc(C(F)(F)F)cc4)CC3)cc2)cc1', 'Carbonic anhydrase 9 (Homo sapiens, UniProt Q16790)', 5.71),
  ('NS(=O)(=O)c1ccc(N/N=C/c2ccc(N3CCN(c4ccc(F)cc4)CC3)cc2)cc1', 'Carbonic anhydrase 9 (Homo sapiens, UniProt Q16790)', 5.90);

# context switch: different molecule, same pKi
Asked: Give its pKi value. Item: `NS(=O)(=O)c1ccc(N/N=C/c2ccc(N3CCN(C(=O)c4ccccc4)CC3)cc2)cc1`
Given back: 5.60
